The measured values listed here are drawn from patent US20120270929A1.

Spleen weight after treatment overview
# test_method_notes: Body and organ weights in C57BL/6 mice
# Type: in vivo, mouse
# conditions: 50 mg/kg/week, 6 weeks
# Description: Four groups of five mice each were injected twice a week with 25 mg/kg (totaling 50 mg/kg/week) of ISIS 447114, ISIS 447118, ISIS 447143, or ISIS 447144 for 6 weeks. A control group of five mice was injected with phosphate buffered saline (PBS) twice a week for 6 weeks. Plasma samples were obtained before the start of treatment, at week 3 and at week 6. […] Body weights of all the mice were measured weekly till the end of the treatment period. […]
Oligonucleotides are written 5' to 3', each unit as a sugar letter and its base; * is a phosphorothioate linkage, no mark a phosphodiester; rarer units and linkages stand in square brackets, end groups in braces. Plain capitals give the bases only. e = 2'-O-(2-methoxyethyl) (MOE); [5mC] = 5-methylcytosine; d = 2'-deoxy (DNA)

GCCACCAGTGCCTGCTGAGC (antisense eG*e[5mC]*e[5mC]*eA*e[5mC]*d[5mC]*dA*dG*dT*dG*d[5mC]*d[5mC]*dT*dG*d[5mC]*eT*eG*eA*eG*e[5mC]) [ISIS 447143] : 0.08 g
TATTTCTATAGCTCATGACA (antisense eT*eA*eT*eT*eT*d[5mC]*dT*dA*dT*dA*dG*d[5mC]*dT*d[5mC]*dA*eT*eG*eA*e[5mC]*eA) [ISIS 447144] : 0.08 g
GCAGCTCGATTCGGGCATGA (antisense eG*e[5mC]*eA*eG*e[5mC]*dT*d[5mC]*dG*dA*dT*dT*d[5mC]*dG*dG*dG*e[5mC]*eA*eT*eG*eA) [ISIS 447118] : 0.08 g

// below: Spleen weight after treatment requested for another sequence
Request: Tell me measured Spleen weight after treatment for CGGATGATTCTTGCTGGTAA (antisense e[5mC]*eG*eG*eA*eT*dG*dA*dT*dT*d[5mC]*dT*dT*dG*d[5mC]*dT*eG*eG*eT*eA*eA) [ISIS 447114] please.
Result: 0.09 g

====

# Tested on: murine TTC39C mRNA
# test_method_notes: Dose-dependent antisense inhibition of murine TTC39C in mouse primary hepatocytes
# Format: cell-based
# conditions: 500.0 nM, electroporation, ~16 h
Oligonucleotides are written 5' to 3', each unit as a sugar letter and its base; * is a phosphorothioate linkage, no mark a phosphodiester; rarer units and linkages stand in square brackets, end groups in braces. Plain capitals give the bases only. e = 2'-O-(2-methoxyethyl) (MOE); [5mC] = 5-methylcytosine; d = 2'-deoxy (DNA)
Is percent inhibition of TTC39C mRNA at least 50%? Then True. If not, False.

ISIS 474609: 5-10-5 MOE gapmer antisense oligonucleotide targeting murine TTC39C (antisense e[5mC]*eG*eT*eA*eG*dT*dA*dG*d[5mC]*dA*d[5mC]*dT*dG*dG*dG*eA*e[5mC]*e[5mC]*eA*e[5mC]) : False
ISIS 474596: 5-10-5 MOE gapmer antisense oligonucleotide targeting murine TTC39C (antisense e[5mC]*eG*eA*eT*eT*dA*d[5mC]*dA*d[5mC]*d[5mC]*dA*dG*d[5mC]*d[5mC]*dT*e[5mC]*eT*eT*e[5mC]*eA) : False
ISIS 474521: 5-10-5 MOE gapmer antisense oligonucleotide targeting murine TTC39C (antisense eG*eG*e[5mC]*eT*eT*dT*d[5mC]*d[5mC]*dT*dA*dA*dG*dG*dA*dT*e[5mC]*e[5mC]*eA*e[5mC]*e[5mC]) : False

# input for lookup
Request: Is percent inhibition of TTC39C mRNA for ISIS 474592: 5-10-5 MOE gapmer antisense oligonucleotide targeting murine TTC39C (antisense eG*eA*eA*eG*e[5mC]*dA*dT*dA*dT*dT*dG*dA*dT*dG*d[5mC]*e[5mC]*eA*eG*e[5mC]*e[5mC]) at or above 50%?
Result: False

====

# System: murine TTC39B mRNA
# test_method_notes: Dose-dependent antisense inhibition of murine TTC39B in mouse primary hepatocytes (Example 2)
# Format: cell-based
# conditions: 25 nM, cytofectin, ~16 h
Oligonucleotides are written 5' to 3', each unit as a sugar letter and its base; * is a phosphorothioate linkage, no mark a phosphodiester; rarer units and linkages stand in square brackets, end groups in braces. Plain capitals give the bases only. e = 2'-O-(2-methoxyethyl) (MOE); [5mC] = 5-methylcytosine; d = 2'-deoxy (DNA)
percent inhibition of TTC39B mRNA overview
Give just the number in %; leave the unit off.

GAGATCAGTTTCTGATGAAA (antisense eG*eA*eG*eA*eT*d[5mC]*dA*dG*dT*dT*dT*d[5mC]*dT*dG*dA*eT*eG*eA*eA*eA) [ISIS 447169] : 17
ATGCCATTCTGGATGTCCTG (antisense eA*eT*eG*e[5mC]*e[5mC]*dA*dT*dT*d[5mC]*dT*dG*dG*dA*dT*dG*eT*e[5mC]*e[5mC]*eT*eG) [ISIS 447106] : 41

Request: Tell me measured percent inhibition of TTC39B mRNA for GCTCAGCTTGCAAGGGCCGC (antisense eG*e[5mC]*eT*e[5mC]*eA*dG*d[5mC]*dT*dT*dG*d[5mC]*dA*dA*dG*dG*eG*e[5mC]*e[5mC]*eG*e[5mC]) [ISIS 447127] please.
Result: 40

====

# System: murine TTC39A mRNA
# test_method_notes: Dose-dependent antisense inhibition of murine TTC39A in b.END cells
# Type: cell-based, mouse
# conditions: 35.0 nM, ~16 h
Oligonucleotides are written 5' to 3', each unit as a sugar letter and its base; * is a phosphorothioate linkage, no mark a phosphodiester; rarer units and linkages stand in square brackets, end groups in braces. Plain capitals give the bases only. e = 2'-O-(2-methoxyethyl) (MOE); [5mC] = 5-methylcytosine; d = 2'-deoxy (DNA)
assay_readout: percent inhibition of TTC39A mRNA (%)
Give just the number in %; leave the unit off.

AGTTGGGACCCAGAAGGCCT (eA*eG*eT*eT*eG*dG*dG*dA*d[5mC]*d[5mC]*d[5mC]*dA*dG*dA*dA*eG*eG*e[5mC]*e[5mC]*eT; antisense) [ISIS 474497] : 29
CGCCTGGACTTCCGGATAGC (e[5mC]*eG*e[5mC]*e[5mC]*eT*dG*dG*dA*d[5mC]*dT*dT*d[5mC]*d[5mC]*dG*dG*eA*eT*eA*eG*e[5mC]; antisense) [ISIS 474369] : 48

Request: Identify measured percent inhibition of TTC39A mRNA obtained with murine TTC39A mRNA for TGCACTGGTCCAGGGCCTCA (eT*eG*e[5mC]*eA*e[5mC]*dT*dG*dG*dT*d[5mC]*d[5mC]*dA*dG*dG*dG*e[5mC]*e[5mC]*eT*e[5mC]*eA; antisense) [ISIS 474351] .
Result: 48

====

# Tested on: murine TTC39C mRNA
# test_method_notes: Dose-dependent antisense inhibition of murine TTC39C in mouse primary hepatocytes
# Format: cell-based
# conditions: 2000.0 nM, electroporation, ~16 h
Oligonucleotides are written 5' to 3', each unit as a sugar letter and its base; * is a phosphorothioate linkage, no mark a phosphodiester; rarer units and linkages stand in square brackets, end groups in braces. Plain capitals give the bases only. e = 2'-O-(2-methoxyethyl) (MOE); [5mC] = 5-methylcytosine; d = 2'-deoxy (DNA)
percent inhibition of TTC39C mRNA overview

Solved entries:
ISIS 474615: 5-10-5 MOE gapmer antisense oligonucleotide targeting murine TTC39C (antisense eG*eT*eA*e[5mC]*eG*dA*dG*dT*dT*dA*d[5mC]*dT*d[5mC]*dT*dG*e[5mC]*e[5mC]*eG*eA*e[5mC]) : 82%
ISIS 474523: 5-10-5 MOE gapmer antisense oligonucleotide targeting murine TTC39C (antisense eG*eG*eT*e[5mC]*eA*d[5mC]*d[5mC]*d[5mC]*d[5mC]*dT*dT*d[5mC]*dG*dG*d[5mC]*e[5mC]*eA*e[5mC]*eA*eA) : 94%
ISIS 474518: 5-10-5 MOE gapmer antisense oligonucleotide targeting murine TTC39C (antisense eG*eT*eA*eG*eT*d[5mC]*dT*dT*dT*dA*dA*dG*dT*d[5mC]*dA*eT*e[5mC]*eG*e[5mC]*eA) : 90%

// below: percent inhibition of TTC39C mRNA requested for another substance
Request: Tell me measured percent inhibition of TTC39C mRNA for ISIS 474613: 5-10-5 MOE gapmer antisense oligonucleotide targeting murine TTC39C (antisense eT*eG*e[5mC]*eT*eT*dT*dA*dA*dT*d[5mC]*d[5mC]*dA*dA*d[5mC]*dG*eA*e[5mC]*eA*eG*eA) please.
Result: 43%

====

# test_method_notes: Plasma cholesterol and triglycerides in C57BL/6 mice (Olympus AU400e)
# Format: in vivo, mouse
# conditions: Week 0 (before treatment), 50 mg/kg/week
Oligonucleotides are written 5' to 3', each unit as a sugar letter and its base; * is a phosphorothioate linkage, no mark a phosphodiester; rarer units and linkages stand in square brackets, end groups in braces. Plain capitals give the bases only. e = 2'-O-(2-methoxyethyl) (MOE); [5mC] = 5-methylcytosine; d = 2'-deoxy (DNA)
assay_readout: HDL cholesterol levels (mg/dL)
Give just the number in mg/dL; leave the unit off.

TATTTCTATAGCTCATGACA (antisense eT*eA*eT*eT*eT*d[5mC]*dT*dA*dT*dA*dG*d[5mC]*dT*d[5mC]*dA*eT*eG*eA*e[5mC]*eA) [ISIS 447144] : 46
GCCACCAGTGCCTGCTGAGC (antisense eG*e[5mC]*e[5mC]*eA*e[5mC]*d[5mC]*dA*dG*dT*dG*d[5mC]*d[5mC]*dT*dG*d[5mC]*eT*eG*eA*eG*e[5mC]) [ISIS 447143] : 44
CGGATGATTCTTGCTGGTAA (antisense e[5mC]*eG*eG*eA*eT*dG*dA*dT*dT*d[5mC]*dT*dT*dG*d[5mC]*dT*eG*eG*eT*eA*eA) [ISIS 447114] : 42

Request: Tell me measured HDL cholesterol levels for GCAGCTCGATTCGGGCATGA (antisense eG*e[5mC]*eA*eG*e[5mC]*dT*d[5mC]*dG*dA*dT*dT*d[5mC]*dG*dG*dG*e[5mC]*eA*eT*eG*eA) [ISIS 447118] please.
Result: 45
